System: cGAS activity in THP1 cells
test name: Cellular assay: ISRE-Gaussia luciferase reporter THP1 cells transfected with ISD (Interferon Stimulatory DNA)
Assay type: cell-based
settings: Homo sapiens, THP-1; ISRE-Gaussia luciferase reporter THP1 cells transfected with 2 μg/mL ISD, 16 hours; read-out: THP1-ISD (Inhibition of cGAS activity in THP1 cells, IC50)
Quick list: IC50 per entry.
measured metric: IC50

>>> result("Cc1ncc(COc2cc(/C=C3\\Sc4ncccc4C3=O)c(Br)c(F)c2O)cn1 [ExA4]")
"≤ 2500 nM"
>>> result("COc1cc(/C=C2\\Sc3ncccc3C2=O)c(Br)cc1O [Ex45]")
"2500 to 10000 nM"
>>> result("Nc1ncc(COc2cc(/C=C3\\Sc4ncccc4C3=O)c(Br)c(F)c2O)cn1 [Ex123]")
"≤ 2500 nM"
>>> result("COc1cc(/C=C2\\SC(=O)N(C)C2=O)c(I)cc1O [Ex65]")
"2500 to 10000 nM"
>>> result("COc1cc(/C=C2\\SC(=O)N(C)C2=O)c(Br)cc1NS(=O)(=O)c1ccccn1 [Ex21]")
"2500 to 10000 nM"

###

assayed system: recombinant cGAS (aa147-522) (Homo sapiens, UniProt Q8N884)
Construct: recombinant cGAS (aa147-522); His6-SUMO (N, cleaved yes)
Sequence (Q8N884 147-522): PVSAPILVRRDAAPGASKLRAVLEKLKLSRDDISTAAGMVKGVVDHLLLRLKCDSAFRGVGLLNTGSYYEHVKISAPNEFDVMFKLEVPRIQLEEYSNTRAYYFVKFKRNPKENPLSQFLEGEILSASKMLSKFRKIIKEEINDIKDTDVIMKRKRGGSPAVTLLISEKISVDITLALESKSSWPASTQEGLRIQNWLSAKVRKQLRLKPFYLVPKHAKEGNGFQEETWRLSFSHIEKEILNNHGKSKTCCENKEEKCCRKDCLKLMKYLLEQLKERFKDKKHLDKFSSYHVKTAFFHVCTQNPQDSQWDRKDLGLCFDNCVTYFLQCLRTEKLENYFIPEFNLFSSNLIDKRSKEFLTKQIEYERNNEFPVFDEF
test name: In vitro assay for inhibition of cGAS activity (ATP consumption, Kinase Glo)
settings: 37° C. 20 minutes, read-out: Activity (Inhibition of cGAS enzyme activity in vitro, IC50)
Quick list: IC50 per entry.
measured metric: IC50

>>> result("CC(Oc1cc(/C=C2\\SC(=O)N(C)C2=O)c(Br)c(F)c1O)C(O)c1cnc(N)nc1 (stereo not shown)")
"≤ 0.5 µM"
>>> result("CN1C(=O)S/C(=C\\c2cc(OCc3cncc(NCc4ccccn4)c3)c(O)cc2Br)C1=O")
"≥ 10 µM"
>>> result("O=C1NC(=O)/C(=C/c2ccncc2C(F)(F)F)S1")
"≥ 10 µM"
>>> result("CN1C(=O)S/C(=C\\c2cc(Oc3ccnc(N)c3)c(O)cc2Br)C1=O")
"0.5 to 10 µM"
>>> result("CN1C(=O)S/C(=C\\c2cc(OCc3cnc([S+](C)[O-])nc3Cl)c(O)cc2Br)C1=O (stereo not shown)")
"0.5 to 10 µM"
>>> result("Cc1nc(N)nc(C)c1COc1cc(/C=C2\\SC(=O)N(C)C2=O)c(Br)cc1O")
"0.5 to 10 µM"
>>> result("COc1cc(/C=C2\\SC(=O)N(C)C2=O)c(Br)cc1OCc1ccncc1")
"0.5 to 10 µM"
>>> result("CN1C(=O)S/C(=C\\c2cc3c(-c4ccc(N)cc4)c[nH]c3cc2Br)C1=O")
"0.5 to 10 µM"
>>> result("CN1C(=O)S/C(=C\\c2cc(OCc3cnc(S(C)(=O)=O)nc3Cl)c(O)cc2Br)C1=O")
"0.5 to 10 µM"
>>> result("CC(Oc1cc(/C=C2\\Sc3ncc(F)cc3C2=O)c(Br)c(F)c1O)c1cnc(N)nc1 (stereo not shown)")
"≤ 0.5 µM"
>>> result("COc1cc(/C=C2\\SC(=O)N(C)C2=O)c(Br)cc1NS(=O)(=O)c1ccc(C)cc1")
"≥ 10 µM"
>>> result("CC(Oc1cc(/C=C2\\SC(=O)N(C)C2=O)c(Br)c(F)c1Oc1cnc(N)s1)c1cnc(N)nc1 (stereo not shown)")
"0.5 to 10 µM"
>>> result("CN1C(=O)S/C(=C\\c2cc(OCc3cncnc3)c(O)c(F)c2Br)C1=O")
"≤ 0.5 µM"
>>> result("CSc1ncc(COc2cc(/C=C3\\SC(=O)N(C)C3=O)c(Br)cc2O)c(SC)n1")
"≥ 10 µM"
>>> result("Cc1nc(N)ncc1COc1cc(/C=C2\\Sc3ncccc3C2=O)c(Br)c(F)c1O")
"≤ 0.5 µM"
>>> result("COc1cc(/C=C2\\Sc3cnccc3C2=O)c(Br)cc1O")
"≤ 0.5 µM"
>>> result("CN1C(=O)S/C(=C\\c2cc(OCc3ccc4cccnc4c3)c(O)cc2Br)C1=O")
"0.5 to 10 µM"
>>> result("CC(Oc1cc(/C=C2\\SC(=O)N(C)C2=O)c(Br)cc1O)c1cncnc1 (stereo not shown)")
"0.5 to 10 µM"
>>> result("CC(=O)Nc1ncc(S(=O)(=O)Nc2cc(Br)c(/C=C3\\SC(=O)N(C)C3=O)cc2OCc2ccccc2)s1")
"0.5 to 10 µM"
>>> result("COc1cc(/C=C2\\SC(=O)N(C)C2=O)c(F)cc1O")
"≥ 10 µM"
>>> result("CC(=O)c1cc(N)ccc1Oc1cc(/C=C2\\SC(=O)N(C)C2=O)c(Br)c(F)c1O")
"≥ 10 µM"
>>> result("CC(C)COc1cc(/C=C2\\SC(=O)N(C)C2=O)c(Br)cc1O")
"0.5 to 10 µM"
>>> result("COc1cc(/C=C2\\SC(=O)N(C)C2=O)c(Br)cc1O")
"≤ 0.5 µM"
>>> result("COc1cc(/C=C2\\Sc3ncccc3C2=O)c(Br)cc1O")
"≤ 0.5 µM"
>>> result("CN1C(=O)S/C(=C\\c2cc(OCc3cncnc3O)c(O)cc2Br)C1=O")
"≤ 0.5 µM"
>>> result("CN1C(=O)S/C(=C\\c2cc(OCc3ccnc(N)n3)c(O)cc2Br)C1=O")
"0.5 to 10 µM"
>>> result("CN1C(=O)S/C(=C\\c2cc3c(Cc4cnc(N)nc4)c[nH]c3c(F)c2Br)C1=O")
"≤ 0.5 µM"
>>> result("CN1C(=O)S/C(=C\\c2cc(OCc3cnc(NCc4ccccc4)nc3)c(O)cc2Br)C1=O")
"0.5 to 10 µM"
>>> result("CN1C(=O)S/C(=C\\c2cc(Oc3ccc(N)nc3)c(O)cc2Br)C1=O")
"≥ 10 µM"
>>> result("O=C1/C(=C/c2cc(OCc3ccncc3)c(O)cc2Br)Sc2ncccc21")
"≤ 0.5 µM"
>>> result("CC(C)n1ccc(COc2cc(/C=C3\\SC(=O)N(C)C3=O)c(Br)cc2O)cc1=O")
"0.5 to 10 µM"
>>> result("COc1cc(/C=C2\\SC(=O)N(C)C2=O)c(I)cc1O")
"≤ 0.5 µM"
>>> result("COc1cccc(Oc2cc(/C=C3\\SC(=O)N(C)C3=O)c(Br)cc2O)c1N")
"≥ 10 µM"
>>> result("CC(C)c1cc(/C=C2\\Sc3ncccc3C2=O)c(Br)cc1O")
"≥ 10 µM"
>>> result("Cc1nc(N)ncc1C(C)Oc1cc(/C=C2\\SC(=O)N(C)C2=O)c(Br)cc1O (stereo not shown)")
"0.5 to 10 µM"
>>> result("COc1nc([S+](C)[O-])ncc1COc1cc(/C=C2\\SC(=O)N(C)C2=O)c(Br)cc1O (stereo not shown)")
"0.5 to 10 µM"
>>> result("O=C1/C(=C/c2cc(OCc3cnc(NCc4ccncc4)nc3)c(O)cc2Br)Sc2ncccc21")
"≤ 0.5 µM"
